- Tested Target: talin-1 head domain (THD) (UniProt P26039)
- Sequence (P26039 whole entry, the tested form may be a part): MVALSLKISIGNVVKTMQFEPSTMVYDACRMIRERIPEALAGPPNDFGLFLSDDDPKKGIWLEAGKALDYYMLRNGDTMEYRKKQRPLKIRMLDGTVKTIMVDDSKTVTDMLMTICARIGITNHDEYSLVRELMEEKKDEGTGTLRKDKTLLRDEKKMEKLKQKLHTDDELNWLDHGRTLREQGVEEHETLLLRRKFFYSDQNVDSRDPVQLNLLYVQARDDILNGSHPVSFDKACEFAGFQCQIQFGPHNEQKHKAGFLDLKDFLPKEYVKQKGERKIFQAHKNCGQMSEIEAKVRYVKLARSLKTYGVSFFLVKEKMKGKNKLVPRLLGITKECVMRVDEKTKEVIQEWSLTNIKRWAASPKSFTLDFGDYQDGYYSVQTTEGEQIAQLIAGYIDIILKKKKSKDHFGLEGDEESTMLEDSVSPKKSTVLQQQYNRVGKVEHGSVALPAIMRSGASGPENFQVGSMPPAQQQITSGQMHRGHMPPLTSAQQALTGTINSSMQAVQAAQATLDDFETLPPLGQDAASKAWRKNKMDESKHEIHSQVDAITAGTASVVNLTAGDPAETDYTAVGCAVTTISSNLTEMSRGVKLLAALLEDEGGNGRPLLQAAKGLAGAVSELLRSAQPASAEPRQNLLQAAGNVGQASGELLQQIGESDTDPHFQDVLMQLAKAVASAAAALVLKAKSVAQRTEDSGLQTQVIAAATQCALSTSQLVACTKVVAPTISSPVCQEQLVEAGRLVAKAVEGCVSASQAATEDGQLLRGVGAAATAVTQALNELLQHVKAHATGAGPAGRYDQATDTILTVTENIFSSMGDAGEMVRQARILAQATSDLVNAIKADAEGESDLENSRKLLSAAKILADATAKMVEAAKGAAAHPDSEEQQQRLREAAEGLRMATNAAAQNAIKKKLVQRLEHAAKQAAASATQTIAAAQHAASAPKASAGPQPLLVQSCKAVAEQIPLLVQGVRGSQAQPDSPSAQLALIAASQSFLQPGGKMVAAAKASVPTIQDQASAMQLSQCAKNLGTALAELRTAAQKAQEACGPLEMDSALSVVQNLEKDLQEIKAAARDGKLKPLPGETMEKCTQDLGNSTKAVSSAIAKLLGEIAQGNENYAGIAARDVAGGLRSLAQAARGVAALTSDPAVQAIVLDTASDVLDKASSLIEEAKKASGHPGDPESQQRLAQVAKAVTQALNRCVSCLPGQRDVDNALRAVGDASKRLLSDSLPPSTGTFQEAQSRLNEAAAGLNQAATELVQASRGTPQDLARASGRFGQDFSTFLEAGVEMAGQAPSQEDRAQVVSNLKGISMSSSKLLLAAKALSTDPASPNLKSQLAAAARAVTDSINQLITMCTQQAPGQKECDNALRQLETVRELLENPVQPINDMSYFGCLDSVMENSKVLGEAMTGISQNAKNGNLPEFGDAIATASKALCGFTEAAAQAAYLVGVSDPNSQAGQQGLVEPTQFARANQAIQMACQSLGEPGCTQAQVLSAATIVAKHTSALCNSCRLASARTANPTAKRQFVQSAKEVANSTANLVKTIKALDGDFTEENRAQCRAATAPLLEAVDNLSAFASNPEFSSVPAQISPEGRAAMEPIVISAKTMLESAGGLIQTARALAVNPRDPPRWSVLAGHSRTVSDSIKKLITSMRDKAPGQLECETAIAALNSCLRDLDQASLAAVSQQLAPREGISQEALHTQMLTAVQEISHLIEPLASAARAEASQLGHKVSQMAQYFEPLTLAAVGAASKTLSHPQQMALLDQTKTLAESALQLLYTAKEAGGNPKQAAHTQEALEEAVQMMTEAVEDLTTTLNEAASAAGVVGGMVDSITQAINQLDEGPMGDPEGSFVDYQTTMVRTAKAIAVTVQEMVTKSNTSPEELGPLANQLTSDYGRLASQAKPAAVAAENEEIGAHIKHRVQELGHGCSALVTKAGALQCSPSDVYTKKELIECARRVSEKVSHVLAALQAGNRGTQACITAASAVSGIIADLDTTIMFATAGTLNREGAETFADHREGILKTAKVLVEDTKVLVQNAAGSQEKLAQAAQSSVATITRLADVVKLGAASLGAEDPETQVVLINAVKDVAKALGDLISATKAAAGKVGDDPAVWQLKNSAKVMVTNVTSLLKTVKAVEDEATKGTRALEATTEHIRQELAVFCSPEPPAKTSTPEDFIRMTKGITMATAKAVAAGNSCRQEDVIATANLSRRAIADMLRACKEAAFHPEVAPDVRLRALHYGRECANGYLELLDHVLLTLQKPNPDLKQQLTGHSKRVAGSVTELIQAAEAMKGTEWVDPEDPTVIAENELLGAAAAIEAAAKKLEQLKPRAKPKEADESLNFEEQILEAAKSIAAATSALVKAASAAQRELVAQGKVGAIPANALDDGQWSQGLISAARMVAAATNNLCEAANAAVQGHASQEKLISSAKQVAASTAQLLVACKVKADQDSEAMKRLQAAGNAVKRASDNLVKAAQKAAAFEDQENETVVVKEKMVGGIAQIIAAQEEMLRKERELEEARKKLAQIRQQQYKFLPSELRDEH
- Protocol: Microscale thermophoresis (MST) affinity measurement
- Format: binding
- Condition Parameters: 200 nM Atto488-labeled β1-tail peptide, 20 mM Tris pH 7.5, 200 mM NaCl, 1 mM TCEP, 0.05% Tween-20
No end group written: not given here.
Property Name: Kd (µM)

HDRREFAKFEKEKMNAKWDTGENPIYKSAVAAVVNPKYEGK [β1-TT/AA]: 100
